Provenance of the data: ChEMBL document CHEMBL2176997

- System: Toxoplasma gondii
- PROTOCOL_SUMMARY: Antiapicomplexan activity against Toxoplasma gondii RH tachyzoites expressing yellow fluorescent protein infected in HFF cells after 72 hrs by fluorescence assay
- Format: functional, organism-based
PROPERTY_NAME: pIC50
When answering, recall that pIC50 equals minus log10 of the concentration in mol/L, and write that number alone.

CHEM_SMILES	pIC50
O=C(Oc1ccc(Cl)cc1C(=O)Nc1ccc([N+](=O)[O-])cc1Cl)c1ccccc1	7.21
CN(CC(=O)NN)C(=O)Oc1ccc(Cl)cc1C(=O)Nc1ccc([N+](=O)[O-])cc1Cl.Cl	7.80
O=C(Nc1cc(C(F)(F)F)cc(C(F)(F)F)c1)c1cc(Cl)ccc1O	7.80

// returns reported pIC50 for input CC(C)(C)c1cccc(NC(=O)c2cc(Cl)ccc2O)c1 8.10

// returns reported pIC50 for input CN(CC(=O)NN)C(=O)Oc1ccc(Cl)cc1C(=O)Nc1cc(C(F)(F)F)cc(C(F)(F)F)c1.Cl 6.90
